Test: CCTE_Shafer_MEA_acute_interburst_interval_mean: CCTE's Neural Acute Assay for Mean Interburst Interval, Shafer Lab (AID 2284016);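 also: percent change of mean interburst interval versus each well's own pre-dose baseline; curves fitted for decrease in interburst interval relative to DMSO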
The source made the active and inactive calls. The calls were made as follows: active = hit-call score of the fitted dose curve at least 0.9, where 1 is the maximum; inactive = score below 0.9.
Labels: Y (active), N (inactive)

> print(dat)
                                    molecule  group.label
 1                  Cc1cc(N=Nc2ccccc2C)ccc1N            N
 2  CC(C)(O)c1cnn2c(-c3ccc(F)c(-c4c(F)cccc4C#N)c3)cnc2n1            N
 3                                 ClCCOCCCl            N
 4                     c1ccc(N=Nc2ccccc2)cc1            Y
 5    C[N+](C)(C)CC1CO1 (stereo unspecified)            N
 6    CCC(C)c1ccc(O)cc1 (stereo unspecified)            Y
 7  ClC1=C(Cl)[C@]2(Cl)[C@H]3[C@H]([C@@H]4C=C[C@H]3C4)[C@@]1(Cl)C2(Cl)Cl            N
 8         CCCCOC(=O)c1ccccc1C(=O)OCc1ccccc1            Y
 9                                CCN(CC)N=O            N
10     O=[N+]([O-])c1ccc(Oc2ccc(Cl)cc2Cl)cc1            Y
11                      c1ccc(NNc2ccccc2)cc1            N
12                   O=[N+]([O-])C(Br)(CO)CO            N
13                                N#CC(Br)Br            N
14                    O=P(OCCCl)(OCCCl)OCCCl            N
15                                O=Cc1ccco1            N
16        Clc1ccc(C(c2ccc(Cl)cc2)C(Cl)Cl)cc1            N

These data points were gathered from PubChem BioAssay (EPA / NIEHS).
